- Tested on: MS2 coat protein
- assay info: apparent KD of MS2 coat protein, switch OFF state (with FMN for OFF switches, without FMN for ON switches); designed switch direction (-1 OFF switch, 1 ON switch): 1; higher = weaker reporter binding
- test settings: FMN input: 0 or 200 uM; Eterna round: R93 (includes R88 designs)
Can you tell me apparent KD of MS2 coat protein for the items I'm about to list?
Numeric answer only, unit nM assumed.

Could you tell me which apparent KD of MS2 coat protein is on file for AAGAAACAUGAGGAUCACCCAUGUAAAAUAAACACAGGAUAUGCGAAAAGAAACAAAGAAGCAGAAGGGUGAAGAA [Mat - Same State 1 - Tesla mod - 56] ? 36.2

Which apparent KD of MS2 coat protein value is on record for CAUCAUGCGCCUAAGGAUAUGUCUCACAAGACAUGAGGAUCACCCAUGUAUAAUAAAUAAAUGAUGCAGAAGGUGGAGUGCAUGC [Latibe] ? 245

For the sequence AAAAAAAAAACUGAGGAUAUGAAAUAAUAGACAUGAGGAUCACCCAUGUUUUCGGUCGAAAAAAUGCAGAAGGCAGAAAAAAAAAA [JR_SameState2_Sub3] , what apparent KD of MS2 coat protein is on record? 23.8

Quick one: apparent KD of MS2 coat protein of AACGUGACGACAUAGGAUAUGUACACACGUACAUGAGGAUCACCCAUGUGACUAGUAAUCGUGUGGCAGAAGGGUGAAGUCUCGA [Anzasousra] ? 31.4

// apparent KD of MS2 coat protein lookup, key: GGAGCCGGCACUGAGGAUAUUCAUAUUAAAACAUGAGGAUCACCCAUGUAGGCCAGAAGGCCUUGGGAGAAGGCAGGUCGACUCG [Diqureveri] 288

I have this sequence here, GGGAGACAUGAGGAUCACCCAUGUGAGAAGAGGCGAGGAUAUCGAAAGAAAGAAGAGAAACGAGAAGGCGCGAGUU [salish99-SS1-054] , and I need its recorded apparent KD of MS2 coat protein. 54.7

* * *

- Test system: MS2 coat protein
- assay info: apparent KD of MS2 coat protein, switch OFF state (with FMN for OFF switches, without FMN for ON switches); designed switch direction (-1 OFF switch, 1 ON switch): -1; higher = weaker reporter binding
- test settings: FMN input: 0 or 200 uM; Eterna round: R93 (includes R88 designs)
metric: apparent KD of MS2 coat protein
# include the unit after the value

Can you look up the measured apparent KD of MS2 coat protein of CCAGAUGCAGGAUAUACAUGAGGAUCACCCAUGUGGCACACACCCACCCACAGCACCCGUAGAAGGGCAGCACG [Halfast on Cytosine - Jieux - Exclusion 3] for me? 25.9 nM

Need apparent KD of MS2 coat protein of AACAAGACAGGAUAUACAUGAGGAUCACCCAUGUGAGAAUUAAGUGGCGUACCACAAGGUAGAAGGGUCAUGGA [Ruby 3] , thanks. 57.6 nM

Quick one: apparent KD of MS2 coat protein of AAAACGGUAGGAUAUACAGUCCGUUGUCGAAUGAUGAAAAGACAUGAGGAUCACCCAUGUAGAAGGACCGAAAA [Bienor] ? 138 nM

For the sequence shown here, AAAUAGUUAGGAUAUACAUGAGGAUCACCCAUGUGGACUUAUGGAGAAUAAUUUAGUGGUAGAAGGGACUAAAA [EX2 Malc#27] , give the reported apparent KD of MS2 coat protein. 44.6 nM

Reported apparent KD of MS2 coat protein for AGAAAACAUGAGGAUCACCCAUGUGAGGAUAUCUAAAAGAAAAGAAAAGAAAGAAGAAGGAGAAGGCACAAGAA [Sanakhte] : what is it? 29.4 nM

Endpoint output: apparent KD of MS2 coat protein of AUAAAACAUGAGGAUCACCCAUGUGAGGAUAUCCUAAAAGAAAGAAAAAAAAAAAAAUGGAGAAGGCACAAUAA [Amethyst 47] . Value? 159 nM

What value of measured apparent KD of MS2 coat protein is listed for AGAAAGUGAGGAUAUACAGAUAAAAAAACGAAAAAAAAUCUGUAGAAGGCACAUGAGGAUCACCCAUGUAAAGA [Mat - Exclusion 4 - Mayanna - D108] ? 37.1 nM

GET /values?readout=apparent KD of MS2 coat protein&item= AAGAACCGAGGAUAUACAUGAGGAUCACCCAUGUAAAAGAAAGAAAAGGGAAAGAAAAGUAGAAGGCGGAAGAA [Aakheperenre Thutmose II] 55.5 nM

Reported apparent KD of MS2 coat protein for GUAGUGUGAGGAUAUGAUUAAAAGAAGGGAAAGAGACUGCAUCAGAAGGCACAUGAGGAUCACCCAUGUAUGAA [JR_Exc004_Sub1223] : what is it? 45.7 nM

Name the reported apparent KD of MS2 coat protein value associated with the sequence AAAUGCUGAGGAUAUACAUGAGGAUCACCCAUGUAAAAUAAAUAAUGAGUGUAAACGUGUAGAAGGCAGCAUAA [Exclusion 3.14c (FMN+ favored )] 19.5 nM

Data request, read-out apparent KD of MS2 coat protein, for CUCAAGUCAGGAUAUAUAAGAAAAGAAGAGAAAGAAAAGAAAUAGAAGGGACAUGAGGAUCACCCAUGUAAGAA [EteRNA is fun!] 36.9 nM

Given the entry AGCACGUCAGGAUAUACGAAAAAAAAGGGAAACAACAAGGGACAUGAGGAUCACCCAUGUAGAAGGGACUAGCA [Diamond 97] , report its measured apparent KD of MS2 coat protein. 44.3 nM

Look up apparent KD of MS2 coat protein: UCCUCACAUGAGGAUCACCCAUGUGAGGAUAUCUGAAAAAAAAAAAAAAAAAAAAAUCAGAGAAGGCACAUGGG [Design 11: Super Stable Short Helix 1] 4.55 nM
